Every entry's value here was drawn from the supplement of paper PMC8975748.

- Tested on: Saccharomyces cerevisiae BY4741 SeMeCo community
- protocol: mean cell size (pixel area) (pixels); higher = larger cells
- settings: 10 µM; 24 h; SM minimal medium
Where a name gives a salt, the structure may show the parent alone.
value kind: mean cell size
One number for each entry.

| compound | target or system | mean cell size |
| --- | --- | --- |
| CC(=O)OCC(CCn1cnc2cnc(N)nc21)COC(C)=O | Saccharomyces cerevisiae BY4741 SeMeCo community | 12.6 |
| CCN(CC)CC#CCOC(=O)C(O)(c1ccccc1)C1CCCCC1 (centres undefined) [Oxybutynin chloride] | Saccharomyces cerevisiae BY4741 SeMeCo community | 12.6 |
| C[C@]12CC[C@@H]3c4ccc(O)cc4CC[C@H]3[C@@H]1CC[C@@H]2OC(=O)CCC1CCCC1 [Estradiol Cypionate] | Saccharomyces cerevisiae BY4741 SeMeCo community | 12.4 |
| CO/N=C(\C(=O)N[C@@H]1C(=O)N2C(C(=O)O)=C(CSc3nnnn3C)CS[C@H]12)c1csc(N)n1 [Cefmenoxime hydrochloride] | Saccharomyces cerevisiae BY4741 SeMeCo community | 12.5 |
| Nc1nc(N)nc(-c2cc(Cl)ccc2Cl)n1 | Saccharomyces cerevisiae BY4741 SeMeCo community | 12.2 |
| Cc1cccc(C)c1NC(=O)C1CCCCN1C (centres undefined) [Mepivacaine HCl] | Saccharomyces cerevisiae BY4741 SeMeCo community | 12.5 |
| CC[C@H]1OC(=O)[C@H](C)[C@@H](O[C@H]2C[C@@](C)(OC)[C@@H](O)[C@H](C)O2)[C@H](C)[C@@H](O[C@@H]2O[C@H](C)C[C@H](N(C)C)[C@H]2O)[C@](C)(O)C[C@@H](C)CN[C@H](C)[C@@H](O)[C@]1(C)O | Saccharomyces cerevisiae BY4741 SeMeCo community | 12.5 |
| Cn1cc(C(=O)[C@@H]2CCc3[nH]cnc3C2)c2ccccc21 [Ramosetron Hydrochloride] | Saccharomyces cerevisiae BY4741 SeMeCo community | 12.6 |
| CSc1nc2cc(Cl)c(Oc3cccc(Cl)c3Cl)cc2[nH]1 | Saccharomyces cerevisiae BY4741 SeMeCo community | 13.1 |
| COc1ccnc(C[S+]([O-])c2nc3cc(OC(F)F)ccc3[nH]2)c1OC (centres undefined) [Pantoprazole sodium] | Saccharomyces cerevisiae BY4741 SeMeCo community | 12.5 |

For every item below, please supply its mean cell size.
1. CO[C@H]1C[C@@H]2CC[C@@H](C)[C@@](O)(O2)C(=O)C(=O)N2CCCC[C@H]2C(=O)O[C@H]([C@H](C)C[C@@H]2CC[C@@H](OC(=O)C(C)(CO)CO)[C@H](OC)C2)CC(=O)[C@H](C)/C=C(\C)[C@@H](O)[C@@H](OC)C(=O)[C@H](C)C[C@H](C)/C=C/C=C/C=C/1C
2. COc1ccc(CC2c3cc(OC)c(OC)cc3CC[N+]2(C)CCC(=O)OCCCCCOC(=O)CC[N+]2(C)CCc3cc(OC)c(OC)cc3C2Cc2ccc(OC)c(OC)c2)cc1OC (centres undefined) [Atracurium Besylate]

result:
14.2
12.4

For each of the compounds below, state mean cell size.
1. CCN(CC)CC#CCOC(=O)C(O)(c1ccccc1)C1CCCCC1 (centres undefined) [Oxybutynin]
2. CC1=C(CC(=O)O)c2cc(F)ccc2/C1=C\c1ccc([S+](C)[O-])cc1 (centres undefined)

result:
1. 12.5
2. 12.4
